Test: growth of efflux-deficient E. coli DRC39 – strain DRC39, OD650, 48 h, E. coli filamentation inducers, primary screen (AID 1179);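 further: screen aims at cell division blockers that make cells filament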
Details: E. coli DRC39 delta-acrAB growth, higher = more signal, called active from +8 up or from −8 down
Outcome: y for z-score of at least 0.2; n for anything lower.

Some entries whose results are on file:
CN(C)C(=O)[C@]1(Cc2ccccc2)N=C(c2ccc(OCCCO)cc2)O[C@@H]1c1ccccc1CN=[N+]=[N-]; y
CC1CC/C=C\[C@H]2OC34C=CCN(c5ccc(Cl)cc5)C(=O)[C@H]3N(CCCCCCO)C(=O)[C@]4(C)C2C(=O)O1 (some centres undefined); y
CCOC(=O)C[C@H]1[C@H](OC(=O)c2ccccc2-c2ccccc2)[C@@H](NC(=O)c2ccc3ccccc3c2)c2cc(OCCCO)ccc2N1C(=O)Cc1ccc(OC)cc1; n
CC(C)=CCCC(C)=CC(O)C1C=CC2C(=O)NC(=O)C2N1Nc1ccc(Cl)cc1Cl (centres undefined); n

Prompt: # bool: z-score of CN(C)CCCC[C@@H]1NC(=O)[C@@H]2C[C@H](C(=O)NCCCCCCNC(=O)CS)[C@H](c3ccc(O)cc3)N2C1=O >= 0.2
Completion: n

Prompt: # bool: z-score of C[N+](C)(C)CCCC[C@@H]1NC(=O)[C@@H]2C[C@H](C(=O)NCc3ccc(F)cc3)[C@H](c3ccc(O)cc3)N2C1=O >= 0.2
Completion: y

Prompt: # bool: z-score of CCCC=C(CCC)[C@@H](NC(=O)OCC(C)C)c1ccc(C(=O)OC)cc1 >= 0.2
Completion: n

Prompt: # bool: z-score of O=C(NCc1ccccc1)[C@@H]1c2ccccc2C(=O)N(Cc2ccc(OC(F)(F)F)cc2)[C@H]1c1ccc(CO)cc1 >= 0.2
Completion: y
